Assay: HepG2 cytotoxicity, primary screen, cytotoxicity control for P. falciparum antimalarial project, cell-based, ATP luminescence (AID 2303);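 also: 0% = DMSO wells and 100% = digitonin-killed cells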
Settings: HepG2 viability, 24-48 h, at 10 µM, stronger effect = higher value
Please provide measured inhibition for the entries that follow.
Numbers only, in %.

Some compounds with known inhibition results, for comparison:
COMPOUND: CC[C@H]1CN2CC[C@H]1C[C@H]2[C@H](O)c1cc(-c2ccc(F)cc2C)nc2ccc(OC)cc12
ASSAY READOUT: inhibition
ASSAY RESULT: -2
--
COMPOUND: Cc1cc(NC(=O)[C@H](CC(C)C)Nc2ccc(C#N)c3ccccc23)ccc1F
ASSAY READOUT: inhibition
ASSAY RESULT: 35
--
COMPOUND: Cc1[nH]c2ccccc2c1C1=CCN(CCCCCC23CCCc4cccc(c42)NC3=O)CC1 (centres undefined)
ASSAY READOUT: inhibition
ASSAY RESULT: 11
--
COMPOUND: CC(=O)C1(c2ccccc2)CCN(CCC2(c3ccc(Cl)c(Cl)c3)CN(C(=O)c3cccc(Cl)c3)CCO2)CC1 (centres undefined)
ASSAY READOUT: inhibition
ASSAY RESULT: 37

Hello, I would appreciate it if you could give inhibition for each entry below.
1. CCOC(=O)CCCN1C(=O)CN=C(c2ccccc2)c2cc(Cl)ccc21
2. CN(C)c1cccc(NC(=O)NC2N=C(c3ccccc3)c3ccccc3N(CC(=O)N(C)c3ccccc3)C2=O)c1 (centres undefined)
3. Cc1cccc(C(=O)Nc2ccnc(N(C)C3CCN(CC(C)C)CC3)c2)c1
4. COC(C(=O)OCCC1CCCN1C)(c1ccccc1)c1ccccc1 (centres undefined)
5. COCCNCc1ccc(-c2ccc(CN(C(=O)Nc3ccccc3)C3CCN(Cc4ccccc4)CC3)cc2)cc1

**Result**
1: 54; 2: 1; 3: 10; 4: 6; 5: 16
